system: NCI-H510 multicellular tumor spheroid growth, % test/control; experiment: Anticancer human tumor NCI-H510 cell line growth inhibition [Asc]; details: second compound 0.316 µM; first compound 0.1 µM; stronger effect = lower value;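 also: spheroids exposed to agents for 7 days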;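 as to viability, T/C: 100% = DMSO vehicle control wells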
measure name: viability, T/C

Below are worked cases with known answers.
>>> reported("O=C(c1cc(Cc2n[nH]c(=O)c3ccccc23)ccc1F)N1CCN(C(=O)C2CC2)CC1 + CNC(C)C(=O)NC1CN(S(=O)(=O)c2cccc(S(=O)(=O)N3CCC4CCC(C(=O)NC(c5ccccc5)c5ccccc5)N4C(=O)C(NC(=O)C(C)NC)C3)c2)CCC2CCC(C(=O)NC(c3ccccc3)c3ccccc3)N2C1=O")
"107%"
>>> reported("COc1c(OCCCN2CCOCC2)ccc2c3n(c(=NC(=O)c4cnc(N)nc4)nc12)CCN3 + Cc1c(S(C)(=O)=O)c(-c2cc(F)cc(N3CCN(c4ccc(NS(=O)(=O)c5ccc(NC(CCN6CCC(C(=O)OCCCP(=O)(O)O)CC6)CSc6ccccc6)c(S(=O)(=O)C(F)(F)F)c5)cc4)CC3)c2)c(-c2ccc(Cl)cc2)n1C(C)C")
"75%"
>>> reported("C=C(F)C(=O)N1CCN(c2nc(OCC3CCCN3C)nc3c2CCN(c2cccc4cccc(Cl)c24)C3)CC1CC#N (configuration not stated) + Cc1c(S(C)(=O)=O)c(-c2cc(F)cc(N3CCN(c4ccc(NS(=O)(=O)c5ccc(NC(CCN6CCC(C(=O)OCCCP(=O)(O)O)CC6)CSc6ccccc6)c(S(=O)(=O)C(F)(F)F)c5)cc4)CC3)c2)c(-c2ccc(Cl)cc2)n1C(C)C")
"95%"
>>> reported("O=C(c1cc(Cc2n[nH]c(=O)c3ccccc23)ccc1F)N1CCN(C(=O)C2CC2)CC1 + Cc1c(S(C)(=O)=O)c(-c2cc(F)cc(N3CCN(c4ccc(NS(=O)(=O)c5ccc(NC(CCN6CCC(C(=O)OCCCP(=O)(O)O)CC6)CSc6ccccc6)c(S(=O)(=O)C(F)(F)F)c5)cc4)CC3)c2)c(-c2ccc(Cl)cc2)n1C(C)C")
"89.1%"
>>> reported("COc1c(OCCCN2CCOCC2)ccc2c3n(c(=NC(=O)c4cnc(N)nc4)nc12)CCN3 + CNC(C)C(=O)NC1CN(S(=O)(=O)c2cccc(S(=O)(=O)N3CCC4CCC(C(=O)NC(c5ccccc5)c5ccccc5)N4C(=O)C(NC(=O)C(C)NC)C3)c2)CCC2CCC(C(=O)NC(c3ccccc3)c3ccccc3)N2C1=O")
"105%"
>>> reported("O=C(c1ccc(F)c(F)c1Nc1ccc(I)cc1F)N1CC(O)([C@@H]2CCCCN2)C1 + Cc1c(S(C)(=O)=O)c(-c2cc(F)cc(N3CCN(c4ccc(NS(=O)(=O)c5ccc(NC(CCN6CCC(C(=O)OCCCP(=O)(O)O)CC6)CSc6ccccc6)c(S(=O)(=O)C(F)(F)F)c5)cc4)CC3)c2)c(-c2ccc(Cl)cc2)n1C(C)C")
"88.7%"

I would be grateful if you could share the reported viability, T/C for Cn1ncnc1[C@H]1c2n[nH]c(=O)c3cc(F)cc(c23)N[C@@H]1c1ccc(F)cc1 + CNC(C)C(=O)NC1CN(S(=O)(=O)c2cccc(S(=O)(=O)N3CCC4CCC(C(=O)NC(c5ccccc5)c5ccccc5)N4C(=O)C(NC(=O)C(C)NC)C3)c2)CCC2CCC(C(=O)NC(c3ccccc3)c3ccccc3)N2C1=O .
93.6%

====

test system: NCI-H510 multicellular tumor spheroid growth, % test/control; assay: Anticancer human tumor NCI-H510 cell line growth inhibition [Asc]; conditions: curve of first compound; second compound 0.0316 µM;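 also: spheroids exposed to agents for 7 days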
measure name: IC50

>>> reported("O=C(c1cc(Cc2n[nH]c(=O)c3ccccc23)ccc1F)N1CCN(C(=O)C2CC2)CC1 + CNC(C)C(=O)NC1CN(S(=O)(=O)c2cccc(S(=O)(=O)N3CCC4CCC(C(=O)NC(c5ccccc5)c5ccccc5)N4C(=O)C(NC(=O)C(C)NC)C3)c2)CCC2CCC(C(=O)NC(c3ccccc3)c3ccccc3)N2C1=O")
"8.07 µM"
>>> reported("O=C(c1ccc(F)c(F)c1Nc1ccc(I)cc1F)N1CC(O)([C@@H]2CCCCN2)C1 + CNC(C)C(=O)NC1CN(S(=O)(=O)c2cccc(S(=O)(=O)N3CCC4CCC(C(=O)NC(c5ccccc5)c5ccccc5)N4C(=O)C(NC(=O)C(C)NC)C3)c2)CCC2CCC(C(=O)NC(c3ccccc3)c3ccccc3)N2C1=O")
"> 1 µM"
>>> reported("COc1c(OCCCN2CCOCC2)ccc2c3n(c(=NC(=O)c4cnc(N)nc4)nc12)CCN3 + CNC(C)C(=O)NC1CN(S(=O)(=O)c2cccc(S(=O)(=O)N3CCC4CCC(C(=O)NC(c5ccccc5)c5ccccc5)N4C(=O)C(NC(=O)C(C)NC)C3)c2)CCC2CCC(C(=O)NC(c3ccccc3)c3ccccc3)N2C1=O")
"> 1 µM"

We now examine a further compound.
I would be grateful if you could share the reported IC50 for C#Cc1c(F)ccc2cc(O)cc(-c3ncc4c(N5CC6CCC(C5)N6)nc(OCC56CCCN5CC(F)C6)nc4c3F)c12 (centres undefined) + CNC(C)C(=O)NC1CN(S(=O)(=O)c2cccc(S(=O)(=O)N3CCC4CCC(C(=O)NC(c5ccccc5)c5ccccc5)N4C(=O)C(NC(=O)C(C)NC)C3)c2)CCC2CCC(C(=O)NC(c3ccccc3)c3ccccc3)N2C1=O .
> 10 µM

====

system: NCI-H510 multicellular tumor spheroid growth, % test/control; experiment: Anticancer human tumor NCI-H510 cell line growth inhibition [Asc]; details: second compound 3 µM; first compound 0.1 µM; stronger effect = lower value;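 also: spheroids exposed to agents for 7 days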;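 as to viability, T/C: 100% = DMSO vehicle control wells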
Binarize viability, T/C at 80%; below is TRUE, at or above is FALSE.

Sample answers from the record:
>>> class_assignment("CCN1CCN(Cc2ccc(Nc3ncc(F)c(-c4cc(F)c5nc(C)n(C(C)C)c5c4)n3)nc2)CC1 + CCN1C(C(=O)NC23CCC(C(=O)O)(CC2)CC3)C(c2cccc(Cl)c2F)C2(C(=O)Nc3cc(Cl)ccc32)C12CCCCC2")
"TRUE"
>>> class_assignment("C=C(F)C(=O)N1CCN(c2nc(OCC3CCCN3C)nc3c2CCN(c2cccc4cccc(Cl)c24)C3)CC1CC#N (stereo not drawn) + CCN1C(C(=O)NC23CCC(C(=O)O)(CC2)CC3)C(c2cccc(Cl)c2F)C2(C(=O)Nc3cc(Cl)ccc32)C12CCCCC2")
"FALSE"
>>> class_assignment("C=CC(=O)N1CCN(c2nc(=O)n(-c3c(C)ccnc3C(C)C)c3nc(-c4c(O)cccc4F)c(F)cc23)C(C)C1 (stereo not drawn) + CCN1C(C(=O)NC23CCC(C(=O)O)(CC2)CC3)C(c2cccc(Cl)c2F)C2(C(=O)Nc3cc(Cl)ccc32)C12CCCCC2")
"FALSE"
>>> class_assignment("COc1c(OCCCN2CCOCC2)ccc2c3n(c(=NC(=O)c4cnc(N)nc4)nc12)CCN3 + CCN1C(C(=O)NC23CCC(C(=O)O)(CC2)CC3)C(c2cccc(Cl)c2F)C2(C(=O)Nc3cc(Cl)ccc32)C12CCCCC2")
"FALSE"
>>> class_assignment("O=C(c1ccc(F)c(F)c1Nc1ccc(I)cc1F)N1CC(O)([C@@H]2CCCCN2)C1 + CCN1C(C(=O)NC23CCC(C(=O)O)(CC2)CC3)C(c2cccc(Cl)c2F)C2(C(=O)Nc3cc(Cl)ccc32)C12CCCCC2")
"FALSE"
>>> class_assignment("C#Cc1c(F)ccc2cc(O)cc(-c3ncc4c(N5CC6CCC(C5)N6)nc(OCC56CCCN5CC(F)C6)nc4c3F)c12 (stereo not drawn) + CCN1C(C(=O)NC23CCC(C(=O)O)(CC2)CC3)C(c2cccc(Cl)c2F)C2(C(=O)Nc3cc(Cl)ccc32)C12CCCCC2")
"FALSE"

Now for another entry.
Is the reported viability, T/C for Cn1ncnc1[C@H]1c2n[nH]c(=O)c3cc(F)cc(c23)N[C@@H]1c1ccc(F)cc1 + CCN1C(C(=O)NC23CCC(C(=O)O)(CC2)CC3)C(c2cccc(Cl)c2F)C2(C(=O)Nc3cc(Cl)ccc32)C12CCCCC2 strictly below 80%?
TRUE

====

system: NCI-H510 multicellular tumor spheroid growth, % test/control; assay: Anticancer human tumor NCI-H510 cell line growth inhibition [Asc]; details: second compound 1 µM; first compound 0.1 µM; active = viability on the fitted dose curve at most 10% of control; inactive = the rest;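 also: spheroids exposed to agents for 7 days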
Valid outcomes are listed here; reply with one: y (active), n (inactive)

# lookup: test call for Cn1ncnc1[C@H]1c2n[nH]c(=O)c3cc(F)cc(c23)N[C@@H]1c1ccc(F)cc1 + Cc1c(S(C)(=O)=O)c(-c2cc(F)cc(N3CCN(c4ccc(NS(=O)(=O)c5ccc(NC(CCN6CCC(C(=O)OCCCP(=O)(O)O)CC6)CSc6ccccc6)c(S(=O)(=O)C(F)(F)F)c5)cc4)CC3)c2)c(-c2ccc(Cl)cc2)n1C(C)C
y

====

test system: NCI-H510 multicellular tumor spheroid growth, % test/control; assay: Anticancer human tumor NCI-H510 cell line growth inhibition [Asc]; conditions: curve of first compound; second compound 0.0316 µM;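 also: spheroids exposed to agents for 7 days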
pIC50: −log10 of the molar value.
measure name: pIC50

Below are worked cases with known answers.
>>> reported("C=CC(=O)N1CCN(c2nc(=O)n(-c3c(C)ccnc3C(C)C)c3nc(-c4c(O)cccc4F)c(F)cc23)C(C)C1 (stereo unspecified) + CNC(C)C(=O)NC1CN(S(=O)(=O)c2cccc(S(=O)(=O)N3CCC4CCC(C(=O)NC(c5ccccc5)c5ccccc5)N4C(=O)C(NC(=O)C(C)NC)C3)c2)CCC2CCC(C(=O)NC(c3ccccc3)c3ccccc3)N2C1=O")
"< 5.00"
>>> reported("C=C(F)C(=O)N1CCN(c2nc(OCC3CCCN3C)nc3c2CCN(c2cccc4cccc(Cl)c24)C3)CC1CC#N (stereo unspecified) + CNC(C)C(=O)NC1CN(S(=O)(=O)c2cccc(S(=O)(=O)N3CCC4CCC(C(=O)NC(c5ccccc5)c5ccccc5)N4C(=O)C(NC(=O)C(C)NC)C3)c2)CCC2CCC(C(=O)NC(c3ccccc3)c3ccccc3)N2C1=O")
5.73
>>> reported("Cc1nc(N2CCC3(CC2)COC(C)C3N)c(CO)nc1Sc1ccnc(N)c1Cl (stereo unspecified) + CNC(C)C(=O)NC1CN(S(=O)(=O)c2cccc(S(=O)(=O)N3CCC4CCC(C(=O)NC(c5ccccc5)c5ccccc5)N4C(=O)C(NC(=O)C(C)NC)C3)c2)CCC2CCC(C(=O)NC(c3ccccc3)c3ccccc3)N2C1=O")
"< 5.52"
>>> reported("CCN1C(C(=O)NC23CCC(C(=O)O)(CC2)CC3)C(c2cccc(Cl)c2F)C2(C(=O)Nc3cc(Cl)ccc32)C12CCCCC2 (stereo unspecified) + CNC(C)C(=O)NC1CN(S(=O)(=O)c2cccc(S(=O)(=O)N3CCC4CCC(C(=O)NC(c5ccccc5)c5ccccc5)N4C(=O)C(NC(=O)C(C)NC)C3)c2)CCC2CCC(C(=O)NC(c3ccccc3)c3ccccc3)N2C1=O")
"< 5.52"
>>> reported("CCN1CCN(Cc2ccc(Nc3ncc(F)c(-c4cc(F)c5nc(C)n(C(C)C)c5c4)n3)nc2)CC1 + CNC(C)C(=O)NC1CN(S(=O)(=O)c2cccc(S(=O)(=O)N3CCC4CCC(C(=O)NC(c5ccccc5)c5ccccc5)N4C(=O)C(NC(=O)C(C)NC)C3)c2)CCC2CCC(C(=O)NC(c3ccccc3)c3ccccc3)N2C1=O")
"< 6.00"

I would be grateful if you could share the reported pIC50 for NC1CCC(NC2CC2c2ccccc2)CC1 (stereo unspecified) + CNC(C)C(=O)NC1CN(S(=O)(=O)c2cccc(S(=O)(=O)N3CCC4CCC(C(=O)NC(c5ccccc5)c5ccccc5)N4C(=O)C(NC(=O)C(C)NC)C3)c2)CCC2CCC(C(=O)NC(c3ccccc3)c3ccccc3)N2C1=O .
< 7.00
